Provenance of the data: paper PMC12040169

- assayDetails: in vitro
- measurementConditions: human, hela cells, % viability
Attribute: viability at 28.5 h, 10 µM

# compound, viability at 28.5 h, 10 µM (%)
measured = [
    ("O=[N+]([O-])c1ccc(Sc2nnc(-c3cccs3)n2CC2CCCO2)cn1 (stereo not shown)", 94.6),
    ("CCOC(=O)Cn1c(C)nc(C)cc1=O", 103),
    ("CCn1nc(C(=O)Nc2ccccc2-c2ccc(OC)cc2)c2ccccc2c1=O", 94.1),
    ("CN1CCCC(NC(=O)C2CCN(Cc3ccc(F)cc3)CC2)C1 (stereo not shown)", 119),
    ("Cc1ccc(/N=N/c2c(O)c(C(=O)Nc3ccc4c(c3)c(=O)[nH]c3ccccc34)cc3ccccc23)c(Cl)c1", 92.7),
    ("Cc1nn2c(-c3ccncc3)ccnc2c1-c1ccccc1", 103),
    ("Cc1ccccc1NC(=O)c1ccc(Br)o1", 88.2),
    ("Cc1nc(CNc2ccc3nnc(C(F)(F)F)n3n2)cs1", 91.6),
    ("CS(=O)(=O)c1ccc(-c2cnc3ncccc3c2N)cc1", 97.5),
    ("Cc1cc(C)n(-c2cc(N3CCN(S(=O)(=O)Cc4ccccc4)CC3)ccc2[N+](=O)[O-])n1", 115),
    ("COc1cc(C)c(CN2CCN(S(=O)(=O)c3cc(C(=O)O)cs3)CC2)cc1OC", 97.2),
    ("CCC(C(=O)Nc1ccccc1C(=O)Nc1c(Cl)cccc1Cl)c1ccccc1 (stereo not shown)", 98.4),
    ("Cc1ccc(C(=O)O)cc1NC(=O)CSc1nc2scc(C3CC3)c2c(=O)n1-c1ccccc1", 107),
    ("Cc1ccc2c(c1)nc(-c1ccc(O)cc1)n2Cc1ccc(O)cc1", 77.4),
    ("Cc1nc2c(OCC(=O)C(C)(C)C)cccn2c1N(C)C(=O)C1CCCCC1", 92.4),
    ("Cc1ccccc1C(=O)N1C[C@H]2NC(=O)c3ccccc3C(=O)[C@@]2(C)C1", 99.7),
    ("CN1CCC2(CC1)SC(=O)Nc1ccc(Br)cc12 [CBK017821B]", 100),
    ("CC1=C(C)C(=NNC(N)=S)C(C)=C(C)C1=NNC(N)=S", 91.9),
    ("COc1ccc(Oc2cncc(OC3CCN(Cc4ccc(Cl)c(Cl)c4)C3)n2)cc1OC (stereo not shown)", 115),
    ("Cc1cc(N2C(=O)c3ccc(Oc4ccc5c(c4)C(=O)N(c4cc(C)on4)C5=O)cc3C2=O)no1", 85.8),
    ("COc1cc(CNC(=O)NC(=O)C2CCN(CCc3cccc(O)c3)CC2)cc(OC)c1OC", 93.2),
    ("O=C(O)CCC(=O)NCC(=O)c1ccc(F)cc1", 76.6),
    ("O=C(O)CCCCCN1C(=O)/C(=C/c2ccc(O)c(O)c2)SC1=S", 91),
    ("O=C1CCC(C(=O)N2CCCC(c3cc4ccccc4cn3)C2)CC1 (stereo not shown)", 102),
    ("CC1CCN(CC[C@H]2CCCN2S(=O)(=O)c2cccc(O)c2)CC1 [CBK074118C]", 112),
    ("COc1cc(OC)c(S(=O)(=O)N2CCOCC2)cc1S(=O)(=O)N1CCOCC1", 98.1),
    ("O=c1[nH]nc2n1-c1ccccc1OC2", 104),
    ("CN1CCN(CCOC(=O)NCc2ccnc3ccccc23)CC1", 94),
    ("CCOC(=O)COc1c(Cl)cc(/C=C/c2[nH]c(=O)[nH]c(=O)c2[N+](=O)[O-])cc1Cl", 91.2),
    ("COc1ccc2[nH]cc(CCNC(=O)c3ccccn3)c2c1", 95.7),
    ("CC(C)OC(=O)c1ccc(NC(=O)c2csc3c2CCCC3)cc1", 106),
    ("O=C(/C=C/c1ccc2c(c1)OCO2)N1CCN(c2ncccn2)CC1", 89.5),
    ("CCCOc1ccc(OC(=O)COc2ccccc2)cc1", 93.3),
    ("O=C(O)c1ccc(-c2n[nH]c(=O)c3ccccc23)cc1", 108),
    ("COc1ccc(CNC(=O)CCn2c(=O)oc3ccccc32)cc1", 92.7),
    ("Fc1ccc(CN2CCC3(C2)c2[nH]c4ccccc4c2CCN3Cc2ccc(F)cc2)cc1 (stereo not shown)", 85.8),
    ("Cc1ccc(C(=O)NC[C@H]2O[C@@H](CC(=O)N3CCCC3)[C@H](O)[C@@H]2O)cc1", 98.9),
]
